test system: Malme-3M; assay: NCI tumour cell line growth inhibition, 48 h
The source made the active and inactive calls. Cut-off read from the data, not from the text of the source: active = GI50 up to about 1.1 µM and inactive = higher.
Field 'call' accepts active, inactive

>  <molecule>
CCN(C(=O)N[C@H](C(=O)N[C@@H](C)C(=O)OC)C(C)C)c1ccccc1

>  <classification>
inactive

$$$$

Qu. Please share the test call associated with COC(=O)C1=COC(OC2OC(CO)C(O)C(O)C2O)C2C3CN4CCc5c([nH]c6ccccc56)C4(CC12)O3 (configuration not stated) .
Ans. inactive

Qu. Test call for this molecule, please: COc1cc(/C=C2/SC(c3ccccc3)N(c3cccc(NC(C)=O)c3)C2=O)cc(OC)c1OC (configuration not stated)
Ans. inactive

Qu. Recorded call for Cc1nn(C(=O)c2ccccc2O)c2c1C(c1ccc(O)cc1)SC(=N)N2 (configuration not stated) ?
Ans. active

Qu. Status in this test for CC12OC3(C)OC(=O)C(c4ccccc4)(O1)C3(C)O2 (configuration not stated) ?
Ans. inactive

Qu. What is the recorded call for this molecule in the test? COc1cc(/C=N/c2ccc(S(N)(=O)=O)cc2)cc(OC)c1
Ans. inactive

Qu. Please let me know the test result on file for O=C(/C=C/c1ccc(-c2ccccc2[N+](=O)[O-])o1)NCc1ccc(C(=O)NCCc2ccccc2)cc1 .
Ans. inactive

Qu. What did this assay record as the result for S=P1(Sc2ccccc2)Oc2ccc3ccccc3c2-c2c(ccc3ccccc23)O1 ?
Ans. inactive

Qu. So what was the verdict on CCOC(=O)CSc1nnc(CSc2nc(-c3ccccc3)c(-c3ccccc3)[nH]2)n1-c1ccccc1 in this test?
Ans. inactive

Qu. State the result this test recorded for N#Cc1c(-c2ccc(Cl)c(Cl)c2)c(-c2ccc(Cl)c(Cl)c2)nn(CC(=O)O)c1=O .
Ans. inactive

Qu. Please state the recorded outcome for this molecule: NC(=O)SCCC(N)C(=O)O (configuration not stated)
Ans. inactive

Qu. What did the test return for N#CCCC1(CCC#N)S(=O)(=O)OCCOS1(=O)=O ?
Ans. inactive

Qu. Entry CC(C(=O)c1ccc(Cl)cc1)C1OC(=O)C(Cl)=C1Cl (configuration not stated) : call = ?
Ans. inactive
